Origin of the recorded values: ChEMBL document CHEMBL4257522

system: Streptococcus pyogenes; assay: Potentiation of tetracycline-induced antibacterial activity against Streptococcus pyogenes ATCC 14289 assessed as minimum modulatory concentration up to 32 uM measured after 16 hrs in presence of MIC/4 tetracycline; format: functional; settings: ATCC 14289, 16 h, read-out: MEC
metric: minimal effective concentration (µM)
Give just the number in µM; leave the unit off.

Known minimal effective concentration results, listed for orientation:
smiles input: O=C(O)c1ccnc(-c2ccccc2)c1O
metric: minimal effective concentration
value measured: 1
//
smiles input: O=C(O)c1cc(O)c(-c2ccccc2)nc1-c1ccccc1
metric: minimal effective concentration
value measured: 4
//
smiles input: O=C(O)c1cc(-c2ccc(F)cc2F)ncc1O
metric: minimal effective concentration
value measured: 8
//
smiles input: O=C(O)c1cnc2c(F)cc(F)cc2c1O
metric: minimal effective concentration
value measured: 4
//
smiles input: O=C(O)c1cnc(-c2ccccc2)c(O)c1
metric: minimal effective concentration
value measured: 4

minimal effective concentration for "Cc1cc(C(=O)O)c(O)c(Cc2ccccc2)n1" is 16
